# experimental_target: PDE4B (Homo sapiens, UniProt Q07343)
# Sequence (Q07343 whole entry): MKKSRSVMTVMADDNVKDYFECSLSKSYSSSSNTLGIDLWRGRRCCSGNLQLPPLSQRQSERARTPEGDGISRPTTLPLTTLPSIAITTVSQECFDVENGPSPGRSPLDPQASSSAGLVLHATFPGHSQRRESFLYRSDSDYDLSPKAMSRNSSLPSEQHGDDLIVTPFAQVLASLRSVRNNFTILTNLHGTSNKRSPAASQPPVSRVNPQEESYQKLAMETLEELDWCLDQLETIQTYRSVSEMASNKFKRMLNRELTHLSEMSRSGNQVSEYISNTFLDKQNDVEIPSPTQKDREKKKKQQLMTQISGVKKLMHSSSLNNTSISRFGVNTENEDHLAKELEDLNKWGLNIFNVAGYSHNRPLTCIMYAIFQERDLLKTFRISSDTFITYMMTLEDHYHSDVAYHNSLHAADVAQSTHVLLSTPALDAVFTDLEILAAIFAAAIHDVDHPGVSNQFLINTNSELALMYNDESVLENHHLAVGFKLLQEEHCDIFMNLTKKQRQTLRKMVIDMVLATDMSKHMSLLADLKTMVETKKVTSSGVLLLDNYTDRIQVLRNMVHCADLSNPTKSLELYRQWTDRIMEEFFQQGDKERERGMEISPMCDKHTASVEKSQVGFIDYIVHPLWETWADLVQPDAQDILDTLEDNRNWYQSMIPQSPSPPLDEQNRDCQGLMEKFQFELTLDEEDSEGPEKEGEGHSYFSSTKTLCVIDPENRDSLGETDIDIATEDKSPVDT
# assay_comment: In-vitro assay for PDE4 enzymes, real-time enzyme-coupled spectrophotometric assay, PDE4B Activity (Table 10)
# Type: biochemical
# measurement_setup: human PDE4B (hPDE4B), enzyme-coupled spectrophotometric assay; read-out: PDE4B Activity, hPDE4B
pIC50: −log10 of the molar value. Counter-ions that a name gives are not always drawn.
Consider the following molecules; for each one, report its pIC50.

Problem: I'm curious: which pIC50 was measured for `COc1ccc(Cc2ccc(S(N)(=O)=O)cc2)c(F)c1-c1cccc(C(C)=O)c1` tested on PDE4B (Homo sapiens, UniProt Q07343)?
Result: > 5.30

Problem: I'm curious: which pIC50 was measured for `COc1ccc(Cc2ccc(F)cc2)cc1-c1cccc([N+](=O)[O-])c1` tested on PDE4B (Homo sapiens, UniProt Q07343)?
Result: > 5.30

Problem: I'm curious: which pIC50 was measured for `COc1ccc(Cc2ccc(OCCN3CCCC3)cc2)cc1-c1cccc([N+](=O)[O-])c1` tested on PDE4B (Homo sapiens, UniProt Q07343)?
Result: 4.70 to 5.30

Problem: I'm curious: which pIC50 was measured for COc1ccc(Cc2ccc(CN)nc2)cc1-c1cccc(Cl)c1 [P-591, hydrochloride] tested on PDE4B (Homo sapiens, UniProt Q07343)?
Result: > 5.30

Problem: I'm curious: which pIC50 was measured for `CCNC(=O)N1CCC[C@@H]1COc1ccc(Cc2ccc(OC)c(-c3cccc(Cl)c3)c2F)cn1` tested on PDE4B (Homo sapiens, UniProt Q07343)?
Result: > 5.30

----------
Consider the following compounds; for each one, report its IC50.
# experimental_target: PDE4B (Homo sapiens)
# assay_comment: In-vitro assay for PDE4 enzymes, real-time enzyme-coupled spectrophotometric assay, PDE4B Activity (Table 10)
# Format: biochemical
# measurement_setup: human PDE4B (hPDE4B), enzyme-coupled spectrophotometric assay; read-out: PDE4B Activity, hPDE4B
Structures can show the parent of a compound that is named as a salt.

Problem: Which measured IC50 value corresponds to COc1ccc([C@](C)(O)c2ccc(NC(C)=O)cc2)c(F)c1-c1cccc(Cl)c1 (single isomer, unassigned) ?
Result: 5 to 20 µM

Problem: Which measured IC50 value corresponds to `COc1ccc(Cc2ccc(N3CCNC3=O)nc2)c(F)c1-c1cccc(Cl)c1` ?
Result: < 5 µM

Problem: Which measured IC50 value corresponds to `COc1ccc(Cc2ccc(OCCN(C)C)cc2)cc1-c1cccc([N+](=O)[O-])c1` ?
Result: 5 to 20 µM

Problem: Which measured IC50 value corresponds to `COc1ccc(Cn2cncn2)cc1-c1cccc(F)c1` ?
Result: 5 to 20 µM

Problem: Which measured IC50 value corresponds to `COc1ccc(Cc2ccccc2O)cc1-c1cccc([N+](=O)[O-])c1` ?
Result: < 5 µM

Problem: Which measured IC50 value corresponds to `COc1ccc(Cc2ccc(CO)nc2)c(F)c1-c1cccc(Cl)c1` ?
Result: < 5 µM

Problem: Which measured IC50 value corresponds to COc1ccc(C(O)c2ccc(F)cc2)cc1-c1cccc(-c2nnco2)c1 (stereo not shown) ?
Result: 21 to 40 µM

Problem: Which measured IC50 value corresponds to `CCNC(=O)Nc1ccc(Cc2ccc(OC)c(-c3cccc(-c4nnn[nH]4)c3)c2F)cn1` ?
Result: 21 to 40 µM

Problem: Which measured IC50 value corresponds to `COc1ccc(Cc2ccc(C(N)=O)nc2)c(F)c1-c1cccc(C(C)=O)c1` ?
Result: < 5 µM

Problem: Which measured IC50 value corresponds to `COc1ccc(Cc2ccc(OCCN(C)C)nc2)c(F)c1-c1cccc(Cl)c1` ?
Result: < 5 µM

Problem: Which measured IC50 value corresponds to CCNC(=O)Nc1ccc(Cc2ccc(OC)c(-c3cccc(C#N)c3)c2F)cn1 [P-405, hydrochloride salt] ?
Result: < 5 µM

Problem: Which measured IC50 value corresponds to `COc1ccc(Cc2ccc(NS(C)(=O)=O)cc2)cc1-c1cccc([N+](=O)[O-])c1` ?
Result: < 5 µM

Problem: Which measured IC50 value corresponds to `COc1ccc(CN2C(=O)CC[C@H]2CN)cc1-c1cccc([N+](=O)[O-])c1` ?
Result: 5 to 20 µM

Problem: Which measured IC50 value corresponds to [2H]C(O)(c1ccc(NC(N)=O)cc1)c1ccc(OC)c(-c2cccc(Cl)c2)c1F (stereo not shown) ?
Result: 21 to 40 µM

Problem: Which measured IC50 value corresponds to `COc1ccc(Cc2ccc(N3CCC3)nc2)c(F)c1-c1cccc(Cl)c1` ?
Result: < 5 µM

Problem: Which measured IC50 value corresponds to `COc1ccc(CNS(=O)(=O)c2ccc(NC(C)=O)cc2)c(F)c1-c1cccc(Cl)c1` ?
Result: < 5 µM

Problem: Which measured IC50 value corresponds to `COc1ccc(Cc2cnc(N(C)CCO)nc2)c(F)c1-c1cccc(Cl)c1` ?
Result: < 5 µM

Problem: Which measured IC50 value corresponds to `COc1ccc(CN2CCCC2=O)c(O)c1-c1cccc([N+](=O)[O-])c1` ?
Result: < 5 µM

Problem: Which measured IC50 value corresponds to `COc1ccc(CN2CCCC2=O)cc1-c1cccc(SC)c1` ?
Result: < 5 µM

Problem: Which measured IC50 value corresponds to `COc1ccc(Cc2ccc(O)cc2)cc1-c1cccc([N+](=O)[O-])c1` ?
Result: < 5 µM

Problem: Which measured IC50 value corresponds to `[2H]C([2H])(c1ccc(NC(N)=O)cc1)c1ccc(OC)c(-c2cccc(Cl)c2)c1F` ?
Result: < 5 µM

Problem: Which measured IC50 value corresponds to `COc1ccc(Cc2ccc(NC(N)=O)cc2)cc1-c1cccc(C#N)c1` ?
Result: < 5 µM

Problem: Which measured IC50 value corresponds to `COc1ccc(Cc2ccc(NS(C)(=O)=O)nc2)c(F)c1-c1cccc(C(C)=O)c1` ?
Result: 5 to 20 µM

Problem: Which measured IC50 value corresponds to O=[N+]([O-])c1cccc(-c2cc(C(O)c3ccc(F)cc3)ccc2OC(F)(F)F)c1 (stereo not shown) ?
Result: < 5 µM

Problem: Which measured IC50 value corresponds to `COC(=O)c1cccc(-c2cc(Cc3ccc(F)cc3)ccc2OC)c1` ?
Result: < 5 µM

Problem: Which measured IC50 value corresponds to `COc1ccc(Cc2ccc(Cl)nc2)c(O)c1-c1cccc([N+](=O)[O-])c1` ?
Result: < 5 µM

Problem: Which measured IC50 value corresponds to `CCNC(=O)Nc1ncc(Cc2ccc(OC)c(-c3cccc(Cl)c3)c2F)cn1` ?
Result: < 5 µM

Problem: Which measured IC50 value corresponds to `COc1ccc(Cc2ccc(CO)nc2)cc1-c1cccc(Cl)c1` ?
Result: < 5 µM

Problem: Which measured IC50 value corresponds to `COc1ccc(Cc2ccc(-n3cnnn3)cc2)c(F)c1-c1cccc(Cl)c1` ?
Result: < 5 µM

Problem: Which measured IC50 value corresponds to `COc1ccc(Cc2cccc(O)c2)cc1-c1cccc([N+](=O)[O-])c1` ?
Result: < 5 µM

Problem: Which measured IC50 value corresponds to `COc1ccc(Cn2c(N)cccc2=O)cc1-c1cccc([N+](=O)[O-])c1` ?
Result: 21 to 40 µM

Problem: Which measured IC50 value corresponds to `CCOC(=O)Nc1ccc(Cc2ccc(OC)c(-c3cccc(Cl)c3)c2F)cn1` ?
Result: < 5 µM

Problem: Which measured IC50 value corresponds to `COc1ccc(Cc2ccc(OC[C@H]3CCCN3)nc2)c(F)c1-c1cccc(Cl)c1` ?
Result: < 5 µM

Problem: Which measured IC50 value corresponds to `COc1cccc(-c2cc(Cn3cncn3)ccc2OC)c1` ?
Result: 5 to 20 µM

Problem: Which measured IC50 value corresponds to `COc1ccc(CN2CCCCC2=O)cc1-c1cccc([N+](=O)[O-])c1` ?
Result: < 5 µM

Problem: Which measured IC50 value corresponds to `COc1ccc(CN2C(=O)CCC2=O)cc1-c1ccc2c(c1)OCO2` ?
Result: 21 to 40 µM

Problem: Which measured IC50 value corresponds to `COc1ccc(CN2CCCC2=O)cc1-c1ccc2c(c1)OCO2` ?
Result: 5 to 20 µM

Origin of values: patent US8791267B2
